EXPERIMENTAL SYSTEM: T1, human C1s (human, UniProt P09871 16-688)
T1 construct: also called hC1s; serum-derived human C1s (CompTech)
T1 sequence: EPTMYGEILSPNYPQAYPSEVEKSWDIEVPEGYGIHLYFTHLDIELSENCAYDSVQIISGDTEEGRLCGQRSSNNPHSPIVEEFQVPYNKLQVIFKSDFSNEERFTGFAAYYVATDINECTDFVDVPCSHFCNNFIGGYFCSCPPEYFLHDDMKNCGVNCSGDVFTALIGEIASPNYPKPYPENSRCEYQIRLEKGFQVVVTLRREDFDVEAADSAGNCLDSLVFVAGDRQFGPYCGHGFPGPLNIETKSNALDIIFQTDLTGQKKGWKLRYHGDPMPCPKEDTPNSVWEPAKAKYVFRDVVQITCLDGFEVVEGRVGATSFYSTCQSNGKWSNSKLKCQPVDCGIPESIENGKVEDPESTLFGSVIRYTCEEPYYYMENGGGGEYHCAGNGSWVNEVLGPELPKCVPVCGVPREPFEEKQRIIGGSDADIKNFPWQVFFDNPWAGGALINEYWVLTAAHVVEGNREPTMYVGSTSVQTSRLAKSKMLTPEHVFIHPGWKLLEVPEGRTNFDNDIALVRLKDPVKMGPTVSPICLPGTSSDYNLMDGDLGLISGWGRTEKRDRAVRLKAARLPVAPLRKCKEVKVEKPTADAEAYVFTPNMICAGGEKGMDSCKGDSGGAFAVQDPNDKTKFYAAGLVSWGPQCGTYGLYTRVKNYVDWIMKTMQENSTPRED
PROTOCOL NOTES: SPR, Ab captured; pH 7.4, 1.2 mM Ca
Collected koff values appear next to each entry.
I only need the number, in s⁻¹, no unit after it.

Worked examples, 2 binders total:
C1_IPN92H0048-SG4GK/IPN93L0024-SK1 (antibody, human IgG4 S228P, kappa, name in Kabat numbering, V domains shown, also called IPN92H0048/IPN93L0024) VH: EVMLVESGGGLVKPGGSLRLSCAASGHTFSNYAMSWVRQAPGKGLEWVATISSGGSHTYYLDSVKGRFTISRDNSKDTLYLQMNSLRAEDTALYYCARLFTGHAMDYWGQGTLVTVSS VL: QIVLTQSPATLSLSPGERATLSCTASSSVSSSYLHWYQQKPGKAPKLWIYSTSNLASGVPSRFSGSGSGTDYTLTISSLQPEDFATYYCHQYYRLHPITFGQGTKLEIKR : 0.00082
C1_IPN92H0038-SG4GK/IPN93L0029-SK1 (antibody, human IgG4 S228P, kappa, name in Kabat numbering, V domains shown, also called IPN92H0038/IPN93L0029) VH: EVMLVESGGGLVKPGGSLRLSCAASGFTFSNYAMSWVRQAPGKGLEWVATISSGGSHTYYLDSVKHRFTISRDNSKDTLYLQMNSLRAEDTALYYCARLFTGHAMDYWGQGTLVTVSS VL: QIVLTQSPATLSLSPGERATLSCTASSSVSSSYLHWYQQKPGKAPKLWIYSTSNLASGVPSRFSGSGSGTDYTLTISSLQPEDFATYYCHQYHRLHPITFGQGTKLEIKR : 0.003

Now for a further binder.
Lab note: measured koff of C1_IPN92H0033-SG4GK/IPN93L0023-SK1 (antibody, human IgG4 S228P, kappa, name in Kabat numbering, V domains shown, also called IPN92H0033/IPN93L0023) VH: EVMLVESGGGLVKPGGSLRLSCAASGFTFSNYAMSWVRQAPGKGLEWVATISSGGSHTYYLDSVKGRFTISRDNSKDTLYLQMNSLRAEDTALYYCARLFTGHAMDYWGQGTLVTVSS VL: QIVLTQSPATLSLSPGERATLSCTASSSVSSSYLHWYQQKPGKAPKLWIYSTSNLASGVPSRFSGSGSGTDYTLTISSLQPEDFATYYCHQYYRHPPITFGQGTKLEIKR was 0.000978
